Examples of binders with documented log10 IC50 follow.
# test_target: full-length beta-Catenin (Uniprot ID P35222) (Homo sapiens (Human)) (UniProt P35222)
# experiment_summary: fluorescence polarization competition vs 5FAM-TCF4(10-53) on full-length beta-catenin
Starred links: 1 amine or outer side, 2 acyl side, 3 side chain; linkers in the order of their positions; H or OH if unused. Positions of bridges follow the written chain, without caps; N, C: chain ends. Non-standard residues stand in square brackets, D forms with d. Primed or numbered codes have the meaning given here. PyrS2″ = (S)-3-amino-1-((pent-4-en-1-yloxy)carbonyl)pyrrolidine-3-carboxylic acid (stapling residue), C=CCCCOC(=O)N1CC[C@@](N[*:1])(C(=O)[*:2])C1; B5(30) = 2-amino-2-(pent-4-en-1-yl)hept-6-enoic acid (2,2-bis(4-pentenyl)glycine, stitching residue), C=CCCCC(CCCC=C)(N[*:1])C(=O)[*:2]; B5(4) = 2,2-bis(4-pentenyl)glycine = 2-amino-2-(pent-4-en-1-yl)hept-6-enoic acid (stitching residue), C=CCCCC(CCCC=C)(N[*:1])C(=O)[*:2]; PyrS2 = (S)-3-amino-1-((pent-4-en-1-yloxy)carbonyl)pyrrolidine-3-carboxylic acid, C=CCCCOC(=O)N1CC[C@@](N[*:1])(C(=O)[*:2])C1; B5(25) = 2-amino-2-(pent-4-en-1-yl)hept-6-enoic acid (stitching residue), C=CCCCC(CCCC=C)(N[*:1])C(=O)[*:2]; EtGA = (S)-2-amino-3-((carboxymethyl)(ethyl)amino)propanoic acid, CCN(CC(=O)[*:3])C[C@H](N[*:1])C(=O)[*:2]; Phe(2-Cl) = N[C@@H](Cc1ccccc1Cl)C(=O)O; Bta = N[C@@H](Cc1csc2ccccc12)C(=O)O; αAllylPro = C=CC[C@@]1(C(=O)O)CCCN1; tBuAla = CC(C)(C)C[C@H](N)C(=O)O; 3Thi = N[C@@H](Cc1ccsc1)C(=O)O; Cha = N[C@@H](CC1CCCCC1)C(=O)O
Units before log transform: nM; reported quantity: IC50; transform: log10.

Some binders with recorded log10 IC50:
binder	result_number
Ac-[αAllylPro]D[tBuAla][B5(30)]NTAAFN[PyrS2][3Thi][Bta]L-NH2 (staple 1-4, 4-11; also: later-eluting HPLC isomer) [I-1881]	2.87
Ac-[αAllylPro]D[Cha][B5(4)]DDLLFT[PyrS2″][Phe(2-Cl)][Bta]S-NH2 (staple 1-4, 4-11) [I-1152]	1.81
Ac-[αAllylPro]D[Cha][B5(4)]DDLAFS[PyrS2″][Phe(2-Cl)][Bta]Q-NH2 (staple 1-4, 4-11) [I-1147]	1.00

Here is the next item to consider.
For Ac-[αAllylPro]D[tBuAla][B5(25)]D[EtGA]AAFT[PyrS2″][3Thi][Bta]Q-NH2 (staple 1-4, 4-11; also: earlier-eluting HPLC staple isomer) [I-968] , what is its reported log10 IC50?
3.47
